# experimental details: Distribution coefficient log D of the compound at pH 3
# Type: physicochemical
# condition notes: octanol/water
measure: logD

(I) CSc1nncc(-c2cnnc(SC)n2)n1
(II) CCc1nncc(-c2cnnc(CC)n2)n1
stdin: # query: argmin of logD over I and II State your choice using its label.
stdout: II
